System: P388 leukemia ip, CD2F1 mice, survival T/C
Assay: NCI In Vivo Anticancer Drug Screen. Data for tumor model P388 Leukemia (intraperitoneal) in CD2F1 (CDF1) mice
Conditions: endpoint: median survival time; dose: 200.0 mg/kg/injection; schedule: Q04DX002 (ip); vehicle: Klucel (hydroxypropylcellulose) (HPC); higher = longer survival
Toxic doses and inconclusive results are not listed.
Reported values of T/C for individual entries

Consider `Cc1ccc(/C2=C(\c3ccc(C)cc3)N(c3ccccc3)CCCCN2c2ccccc2)cc1` . Its measured T/C is 99 % of control

Consider `O=[N+]([O-])c1cccc(SNSc2cccc([N+](=O)[O-])c2)c1` . Its measured T/C is 88 % of control

Consider `CCCCCCCCCCCCOC(=O)/C=C\C(=O)NC(N)=O` . Its measured T/C is 123 % of control

Consider `O=C(O)c1ccnc2nc[nH]c12` . Its measured T/C is 106 % of control

Consider `S=C(N/N=C\c1nc2ccccc2c2ccccc12)Nc1ccc(Br)cc1` . Its measured T/C is 93 % of control

Attention now turns to another entry.
Consider `Cn1c(=O)c2nc(-c3ccccc3)nnc2n(CCO)c1=O` . Its measured T/C is 106 % of control

* * *

Tested on: P388 leukemia ip, CD2F1 mice, survival T/C
Experiment: NCI In Vivo Anticancer Drug Screen. Data for tumor model P388 Leukemia (intraperitoneal) in CD2F1 (CDF1) mice
Conditions: endpoint: median survival time; dose: 200.0 mg/kg/injection; schedule: Q01DX009 (ip); vehicle: saline with Tween-80; higher = longer survival
Inconclusive results and toxic doses are left out.
Reported values of T/C for individual entries

# annotated cases, reported T/C shown
Form field, T/C with P388 leukemia ip, CD2F1 mice, survival T/C, item `O=c1c2c([nH]c3c1ccc1[nH]c4c(c(=O)c13)CCCC4)CCCC2` : 97 % of control

Form field, T/C with P388 leukemia ip, CD2F1 mice, survival T/C, item CCSC(=O)N1c2ccc(OC)cc2C=CC1C#N (stereo unspecified) : 108 % of control

Form field, T/C with P388 leukemia ip, CD2F1 mice, survival T/C, item CCOC12NC(=O)N(C)C1(OCC)C(=O)N(C)C(=O)N2C (stereo unspecified) : 88 % of control

Form field, T/C with P388 leukemia ip, CD2F1 mice, survival T/C, item `Cc1ccc(NC(=O)N(CCCCl)N=O)cc1` : 100 % of control

Form field, T/C with P388 leukemia ip, CD2F1 mice, survival T/C, item `ClC1(c2ccccc2)c2ccc(Br)cc2-c2cc(Br)ccc21` : 109 % of control

Further cases:
Form field, T/C with P388 leukemia ip, CD2F1 mice, survival T/C, item `CC(=O)CC(=O)CCCC(=O)O` : 104 % of control

* * *

Reported values of T/C for individual entries
System: P388 leukemia ip, CD2F1 mice, survival T/C
Experiment: NCI In Vivo Anticancer Drug Screen. Data for tumor model P388 Leukemia (intraperitoneal) in CD2F1 (CDF1) mice
Details: endpoint: median survival time; dose: 50.0 mg/kg/injection; schedule: Q01DX005 (ip); vehicle: Klucel (hydroxypropylcellulose) (HPC); higher = longer survival
Toxic doses and inconclusive results are not listed.

# annotated cases, reported T/C shown
Consider `O=C(Nc1ncn[nH]1)c1ccccc1O` . Its measured T/C is 99 % of control

Consider `C=C(Cl)C(=NC(C)(C)C)Nc1cccc(Cl)c1` . Its measured T/C is 105 % of control

Consider `CCCCC1(CCN(CC)c2ccccc2)C(=O)NC(=O)NC1=O` . Its measured T/C is 101 % of control

Attention now turns to another entry.
Consider `CC(=O)NCCSSCCCCSSCCNC(C)=O` . Its measured T/C is 112 % of control
